The reported measurements were obtained from the METLIN SMRT retention time set (Domingo-Almenara et al. 2019).

# run-description: gradient 5% acetonitrile 3 min, to 50% in 2 min, to 85% in 15 min, held 3 min, 100 µL/min
# condition-info: column: Zorbax Extend-C18 2.1 x 50 mm; eluents: water / acetonitrile, 0.1% formic acid
assay-readout: RP-LC retention time (s)

compound | assay-readout | measurement
CCn1c(=O)c(N2CCN(C(=O)NCc3ccccc3)CC2)nc2ccccc21 | RP-LC retention time | 820
Cc1c(C(=O)N2CCCC(C)C2)cnn1-c1ccc(-c2nc(C(C)(C)C)no2)cn1 (stereo not given) | RP-LC retention time | 1230
CCc1nc(N)n(CC(=O)Nc2cc(C)ccc2C)c(=O)c1C | RP-LC retention time | 643
Cc1cccc(S(=O)(=O)N2C[C@@H](F)C[C@H]2C(=O)N2CCc3ccccc3C2)c1 | RP-LC retention time | 906
Cc1ccc(CCC(=O)Nc2cccc3ccccc23)o1 | RP-LC retention time | 847
Cc1[nH]nc(-c2c(C)sc(C)c2S(=O)(=O)Nc2cccc(Br)c2)c1C | RP-LC retention time | 1130
CC(=O)NCc1nc(-c2ccc(S(=O)(=O)N3CCC(C(=O)N4CCCC4)CC3)cc2)no1 | RP-LC retention time | 639
COc1ccc(C2CC(=O)c3c(C)nc(N4CCN(c5ccccn5)CC4)nc3C2)cc1OC (stereo not given) | RP-LC retention time | 676
O=C(NCc1ccc(Cl)cc1)c1cn2c(n1)COCC2 | RP-LC retention time | 678
CCCn1cc(CCNC(=O)c2cc(C)ccc2C)c2cccnc21 | RP-LC retention time | 827
CCOC(=O)c1noc2nc(C)nc(Nc3ccc(C)c(F)c3)c12 | RP-LC retention time | 1230
CC(C)N1CCN(Cc2nc(-c3ccc(N4CCSCC4)nc3)no2)CC1 | RP-LC retention time | 614
Cc1nn(-c2ccc(C(=O)N3CCN(c4ccccn4)CC3)cc2)c2c1C(=O)CCC2 | RP-LC retention time | 574
CNc1cccnc1OC1CCN(Cc2ccccn2)C1 (stereo not given) | RP-LC retention time | 577
Cc1ccc(S(=O)(=O)N2CCC(C(=O)NCCc3csc(-c4cccs4)n3)CC2)cc1 | RP-LC retention time | 913
COC(=O)c1ccc2c(=O)n(Cc3ccc(OC)cc3)c(N3CCC(C(N)=O)CC3)nc2c1 | RP-LC retention time | 744
CCOc1ccccc1NC(=O)C1CCCN(c2cnc3nccnc3c2)C1 (stereo not given) | RP-LC retention time | 664
CCOC(=O)C1CCN(Cc2nc3nc(C)cc(N4CCC(C)CC4)n3n2)CC1 | RP-LC retention time | 642
O=C([C@@H]1C[C@H](F)CN1S(=O)(=O)c1ccc(F)cc1F)N1CCCCC1 | RP-LC retention time | 812
Clc1ccccc1-c1nc(-c2ccncc2)no1 | RP-LC retention time | 1040

---

# run-description: gradient 5% acetonitrile 3 min, to 50% in 2 min, to 85% in 15 min, held 3 min, 100 µL/min
# condition-info: column: Zorbax Extend-C18 2.1 x 50 mm; eluents: water / acetonitrile, 0.1% formic acid
# strict inequality: RP-LC retention time < 800 s yields true (1), everything else yields false (0)

compound | assigned-label
CCCSc1nnc(CNC(=O)c2ccccc2F)n1-c1cccc(C(F)(F)F)c1 | false (0)
CN(C)C1(CC2CC2)CCN(C(=O)c2ccco2)CC1 | true (1)
Cn1ncc2c3ccccc3n(CCCC(=O)NCCCN3CCCC3=O)c2c1=O | true (1)
CCOC(=O)c1ccc2nc(C)cc(NC(=O)c3cccs3)c2c1 | true (1)
O=C(c1cc(-c2ccccn2)n[nH]1)N1CCCC(C(=O)N2CCc3ccccc32)C1 (stereo not given) | true (1)
COc1ccc(CN2CC(C(=O)N3CCN(c4cc(=O)n(C)c(=O)n4C)CC3)CC2=O)cc1 (stereo not given) | true (1)
CC(C)c1ccc(NC(=O)C2CC(=O)N(c3cccc(NC(=O)C4CCC4)c3)C2)cc1 (stereo not given) | false (0)
Cc1ccccc1-c1noc(Cn2ccn3nc(-c4ccc5c(c4)OCO5)cc3c2=O)n1 | false (0)
CSc1ccccc1C(=O)N(CCN(C)C)c1nc2ccc([N+](=O)[O-])cc2s1 | true (1)
CC1(C)CC(=O)c2cn(-c3ccccc3)c(=O)c(C(=O)Nc3ccc4c(c3)OCCO4)c2C1 | false (0)
COc1cccc2cc(C(=O)NCC3CCN(S(=O)(=O)C4CC4)CC3)oc12 | true (1)
Cn1cc2c3c(cccc31)CN(C(=O)c1ccc(F)cc1Cl)CC2 | false (0)
CCCCNC(=O)c1ccc2c(c1)NC(=O)C(CC(C)C)N2 (stereo not given) | true (1)
COc1ccc(Cl)cc1NC(=O)N1CCCC1c1nc(-c2ccccc2)no1 (stereo not given) | false (0)
COCCN(CCOC)c1ncnc2c1cnn2-c1ccc(C)cc1C | false (0)
CCOCC(=O)Nc1c(C)nc2ccc(Cl)cn2c1=O | true (1)
CCCNC(=O)c1cc(C)nc2ccc(F)cc12 | true (1)
CCn1nc(N2CCCC(NS(=O)(=O)c3cccc4cccnc34)C2)ccc1=O (stereo not given) | true (1)
CCOC(=O)C1=CN(CC(=O)NCc2ccc(Cl)cc2)S(=O)(=O)N=C1C | false (0)
